experiment: chemical genetic growth profiling, strain panel (AID 1159580);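 note: tested at 20 µM; growth read once vehicle control cultures reached saturation at 30 °C; 1 = growth at the plate median or of vehicle wells; lower values mean less growth of the strain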
conditionNotes: S. cerevisiae deletion strains, growth OD, locus YNL233W, strain BNI4
Out of some 5,500 compounds screened, about 2,000 (36%) were called active. Inconclusive results (about 18%) are left out. Cut-off read from the data, not from the text of the source: active = normalized growth mostly below about 0.91 (no sharp cut-off); inconclusive = no clear call, values can overlap the other calls; inactive = mostly above about 0.92. This is one part of the list.
Your answer must be one of the following: t = active, f = inactive

1) COc1cc(C(=O)N2CCOCC2)cc(OC)c1OC = f
2) CC1(C)S[C@@H]2C(N3C(=O)[C@@H](c4ccccc4)NC3(C)C)C(=O)N2[C@H]1C(=O)O (some centres not stated) = f
3) NCC(O)CC(=O)O (configuration not stated) = f
4) CCc1ccc2c(O)c3c(cc2c1C(=O)OC)C(=O)c1c(O)ccc(O)c1C3=O = f

Problem: I'd appreciate the recorded outcome for "NC(=O)c1ccccc1O" from this test.
Solution: f

Problem: I'd appreciate the recorded outcome for "CCCc1nn(C)c2c(=O)[nH]c(-c3cc(S(=O)(=O)N4CCN(C)CC4)ccc3OCC)nc12" from this test.
Solution: f

Problem: I'd appreciate the recorded outcome for "CN(C)C(=O)C(CCN1CCC(O)(c2ccc(Cl)cc2)CC1)(c1ccccc1)c1ccccc1" from this test.
Solution: f

====

experiment: chemical genetic growth profiling, strain panel (AID 1159580);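 note: tested at 20 µM; growth read once vehicle control cultures reached saturation at 30 °C; 1 = growth at the plate median or of vehicle wells; lower values mean less growth of the strain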
conditionNotes: S. cerevisiae deletion strains, growth OD, locus YDR162C, strain NBP2, hits give low values
Hit rate of the full screen: of about 5,500 compounds, about 2,000 (36%) were called active. Not shown: some 18% with an inconclusive outcome. The list shows a part of the results.
parameterMeasured: normalized growth
Reply briefly: the number, and no unit.

Please review the entries below; each comes with its answer.
1) CCOC(=O)C1=C(O)C(=O)N(Cc2ccccc2)C1 = 0.995
2) C/C=C(\C)C(=O)O[C@@H]1c2c(ccc3ccc(=O)oc23)OC(C)(C)[C@@H]1OC(C)=O = 0.983
3) CC1(C)C(O)CC(=O)C2(C)C1CC(O)C1(C)C2CCC2(C)C(c3ccoc3)OC(=O)C3OC321 (centres undefined) = 1
4) COc1cc(C(=O)O)cc(OC)c1OC = 1.02
5) COc1ccc(-c2cc(=O)c3c(O)c(OC)c(OC)cc3o2)cc1O = 1
6) CCCCCC(O)C1C(=O)OC(C)C(O)/C=C/C=C/C=C/C=C/C=C(\C)C(O)CC(O)CC(O)CC(O)CC(O)CC(O)CC1O (centres undefined) = 1.02
7) CSc1nc(NC(C)C)nc(NC(C)C)n1 = 1.02
8) COC(=O)CC1C(C)(C)C(OC(C)=O)[C@@H]2[C@@H](OC(C)=O)[C@]34O[C@@]2(O)[C@]1(C)C3CC[C@]1(C)C4=CC(=O)O[C@H]1c1ccoc1 (some centres undefined) = 1

Problem: # input compound: "Nc1nc(/C(=C/CC(=O)O)C(=O)N[C@@H]2C(=O)N3C(C(=O)O)=CCS[C@H]23)cs1" ; wanted: its normalized growth
Solution: 1

Problem: # input compound: NC[C@H]1O[C@H](OC2[C@@H](N)C[C@@H](N)[C@H](O[C@H]3O[C@H](CO)[C@@H](O)[C@H](N)[C@H]3O)[C@H]2O)[C@H](O)[C@@H](O)[C@@H]1O (some centres undefined) ; wanted: its normalized growth
Solution: 1

Problem: # input compound: "CC[C@@]1(O)C(=O)OCc2c1cc1n(c2=O)Cc2cc3ccccc3nc2-1" ; wanted: its normalized growth
Solution: 0.688

Problem: # input compound: "CC1(C)S[C@@H]2[C@H](NC(=O)[C@@H](N)c3ccc(O)cc3)C(=O)N2[C@H]1C(=O)O" ; wanted: its normalized growth
Solution: 1.03

Problem: # input compound: C[C@@H](CO)NC(=O)C1C=C2c3cccc4[nH]cc(c34)C[C@H]2N(C)C1 (some centres undefined) ; wanted: its normalized growth
Solution: 1.02

====

normalized growth: recorded values
experiment: chemical genetic growth profiling, strain panel (AID 1159580);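 note: tested at 20 µM; growth read once vehicle control cultures reached saturation at 30 °C; 1 = growth at the plate median or of vehicle wells; lower values mean less growth of the strain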
conditionNotes: S. cerevisiae deletion strains, growth OD, locus YOR136W, strain idh2, hits give low values
The whole screen tested about 5,500 compounds, of which about 2,000 (36%) were called active. Roughly 18% stayed inconclusive and do not appear here. This is one part of the list.
Reply briefly: the number, and no unit.

Problem: # input compound: "NC(=O)c1ccccc1O" ; wanted: its normalized growth
Solution: 0.989

Problem: # input compound: "CCOC(=O)C1=C(O)C(=O)N(Cc2ccccc2)C1" ; wanted: its normalized growth
Solution: 1.02

Problem: # input compound: C/C=C/CC(C)C(O)C1C(=O)NC(CC)C(=O)N(C)CC(=O)N(C)C(CC(C)C)C(=O)NC(C(C)C)C(=O)N(C)C(CC(C)C)C(=O)NC(C)C(=O)NC(C)C(=O)N(C)C(CC(C)C)C(=O)N(C)C(CC(C)C)C(=O)N(C)C(C(C)C)C(=O)N1C (centres undefined) ; wanted: its normalized growth
Solution: 1.03

Problem: # input compound: CCC(=O)O[C@]1(C(=O)CCl)[C@@H](C)CC2C3CCC4=CC(=O)C=C[C@]4(C)[C@@]3(F)[C@@H](O)C[C@@]21C (some centres undefined) ; wanted: its normalized growth
Solution: 0.995

Problem: # input compound: "C[C@]12CCC(=O)C=C1CCc1ccc(O)cc12" ; wanted: its normalized growth
Solution: 0.97

Problem: # input compound: "O=C(/C=C(\O)c1ccccc1)c1ccccc1O" ; wanted: its normalized growth
Solution: 0.939

Problem: # input compound: CC(=O)[C@@]1(O)CCC2C3C=C(Cl)C4=CC(=O)[C@@H]5CC5[C@]4(C)C3CC[C@@]21C (some centres undefined) ; wanted: its normalized growth
Solution: 1

Problem: # input compound: "COc1nc(NC(C)C)nc(NC(C)C)n1" ; wanted: its normalized growth
Solution: 1.02

Problem: # input compound: CCC(=O)OCC(=O)[C@@]1(OC(=O)CC)[C@@H](C)CC2C3CCC4=CC(=O)C=C[C@]4(C)C3(F)[C@@H](O)C[C@@]21C (some centres undefined) ; wanted: its normalized growth
Solution: 0.981

Problem: # input compound: CCC(=O)OCC(=O)C1(OC(=O)CC)C(C)CC2C3CCC4=CC(=O)C=CC4(C)C3(Cl)C(O)CC21C (centres undefined) ; wanted: its normalized growth
Solution: 0.979

Problem: # input compound: CCCCC(=O)O[C@]1(C(=O)CO)[C@@H](C)CC2C3CCC4=CC(=O)C=C[C@]4(C)[C@@]3(F)C(O)C[C@@]21C (some centres undefined) ; wanted: its normalized growth
Solution: 0.979

Problem: # input compound: "O=C(O)c1cc(O)ccc1O" ; wanted: its normalized growth
Solution: 0.995

Problem: # input compound: "CC(=O)Oc1ccccc1C(=O)Oc1ccccc1C(=O)O" ; wanted: its normalized growth
Solution: 0.978

Problem: # input compound: "O=C(O)c1ccccc1O" ; wanted: its normalized growth
Solution: 1.02

Problem: # input compound: "COC(=O)[C@H]1[C@H]2C[C@H]3c4[nH]c5cc(OC)ccc5c4CCN3C[C@H]2C[C@@H](OC(=O)c2cc(OC)c(OC)c(OC)c2)[C@@H]1OC" ; wanted: its normalized growth
Solution: 0.997

Problem: # input compound: "CC(C)Nc1nc(Cl)nc(NC(C)C)n1" ; wanted: its normalized growth
Solution: 1.01

====

experiment: chemical genetic growth profiling, strain panel (AID 1159580);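 note: tested at 20 µM; growth read once vehicle control cultures reached saturation at 30 °C; 1 = growth at the plate median or of vehicle wells; lower values mean less growth of the strain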
conditionNotes: S. cerevisiae deletion strains, growth OD, locus YBR171W, strain sec66, hits give low values
Among all 5,500 compounds or so, about 2,000 (36%) were called active. Roughly 18% stayed inconclusive and do not appear here. The list shows a part of the results.
parameterMeasured: normalized growth
Reply briefly: the number, and no unit.

Please review the entries below; each comes with its answer.
1. CC[C@@]1(O)C(=O)OCc2c1cc1n(c2=O)Cc2cc3ccccc3nc2-1 = 0.949
2. CC1=CC(=O)C2C(C)(C)CCC[C@]2(C)[C@@]1(O)CCc1ccoc1 (some centres undefined) = 0.984

Problem: # input compound: "CC[C@@]1(O)C(=O)OCc2c1cc1n(c2=O)Cc2cc3cc(O)ccc3nc2-1" ; wanted: its normalized growth
Solution: 1.02

Problem: # input compound: COC(=O)C(N)CS (centres undefined) ; wanted: its normalized growth
Solution: 0.984

Problem: # input compound: CCC(=O)O[C@]1(C(=O)CCl)[C@@H](C)CC2C3CCC4=CC(=O)C=C[C@]4(C)[C@@]3(F)[C@@H](O)C[C@@]21C (some centres undefined) ; wanted: its normalized growth
Solution: 1.03

Problem: # input compound: CCC(=O)OCC(=O)C1(OC(=O)CC)C(C)CC2C3CCC4=CC(=O)C=CC4(C)C3(Cl)C(O)CC21C (centres undefined) ; wanted: its normalized growth
Solution: 0.963

Problem: # input compound: CCC(=O)OCC(=O)[C@@]1(OC(=O)CC)[C@@H](C)CC2C3CCC4=CC(=O)C=C[C@]4(C)C3(F)[C@@H](O)C[C@@]21C (some centres undefined) ; wanted: its normalized growth
Solution: 1

Problem: # input compound: CCCCC(=O)O[C@]1(C(=O)CO)[C@@H](C)CC2C3CCC4=CC(=O)C=C[C@]4(C)[C@@]3(F)C(O)C[C@@]21C (some centres undefined) ; wanted: its normalized growth
Solution: 0.941

Problem: # input compound: CCC(=O)OCC(=O)C1(OC(=O)CC)C(C)CC2C3C(Cl)CC4=CC(=O)C=CC4(C)C3C(O)CC21C (centres undefined) ; wanted: its normalized growth
Solution: 1.04
